- tgt: antithrombin III (plasma purified human AT-III), in complex with unfractionated heparin
Kindly supply the reported K0.5 values for the records listed here.
One number for each entry, in nM.

See these solved cases before continuing.
[
  {
    "protein": "FIXa-D203N/F205T/R338A (protein) chain 1: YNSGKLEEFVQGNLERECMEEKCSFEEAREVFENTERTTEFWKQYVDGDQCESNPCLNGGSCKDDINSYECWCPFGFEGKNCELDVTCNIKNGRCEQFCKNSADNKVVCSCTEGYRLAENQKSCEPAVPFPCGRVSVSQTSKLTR chain 2: VVGGEDAKPGQFPWQVVLNGKVNATCGGSIVNEKWIVTAAHCVETGVKITVVAGEHNIEETEHTEQKRNVIRIIPHHNYNAAINKYNHDIALLELDEPLVLNSYVTPICIADKEYTNIFLKFGSGYVSGWGRVFHKGRSALVLQYLRVPLVDRATCLASTKFTIYNNMFCAGFHEGGRDSCQGDSGGPHVTEVEGTSFLTGIISWGEECAMKGKYGIYTKVSRYVNWIKEKTKLT",
    "assayResult": 423
  },
  {
    "protein": "FIXa-D203N/F205T/R338E/R403E (protein) chain 1: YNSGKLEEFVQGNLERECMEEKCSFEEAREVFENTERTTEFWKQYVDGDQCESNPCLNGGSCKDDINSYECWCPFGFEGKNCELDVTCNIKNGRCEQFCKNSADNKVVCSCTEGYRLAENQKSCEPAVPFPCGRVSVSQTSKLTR chain 2: VVGGEDAKPGQFPWQVVLNGKVNATCGGSIVNEKWIVTAAHCVETGVKITVVAGEHNIEETEHTEQKRNVIRIIPHHNYNAAINKYNHDIALLELDEPLVLNSYVTPICIADKEYTNIFLKFGSGYVSGWGRVFHKGRSALVLQYLRVPLVDRATCLESTKFTIYNNMFCAGFHEGGRDSCQGDSGGPHVTEVEGTSFLTGIISWGEECAMKGKYGIYTKVSEYVNWIKEKTKLT",
    "assayResult": 1520
  },
  {
    "protein": "FIXa-D203N/F205T/R338E (protein) chain 1: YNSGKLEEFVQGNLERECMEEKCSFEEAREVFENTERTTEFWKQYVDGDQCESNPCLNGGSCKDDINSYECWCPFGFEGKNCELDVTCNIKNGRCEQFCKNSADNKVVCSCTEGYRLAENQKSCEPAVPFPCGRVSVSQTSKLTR chain 2: VVGGEDAKPGQFPWQVVLNGKVNATCGGSIVNEKWIVTAAHCVETGVKITVVAGEHNIEETEHTEQKRNVIRIIPHHNYNAAINKYNHDIALLELDEPLVLNSYVTPICIADKEYTNIFLKFGSGYVSGWGRVFHKGRSALVLQYLRVPLVDRATCLESTKFTIYNNMFCAGFHEGGRDSCQGDSGGPHVTEVEGTSFLTGIISWGEECAMKGKYGIYTKVSRYVNWIKEKTKLT",
    "assayResult": 1170
  }
]

The following proteins each have a reported value; give each one's K0.5.
1. FIXa-R338E/R403E/E410N (protein) chain 1: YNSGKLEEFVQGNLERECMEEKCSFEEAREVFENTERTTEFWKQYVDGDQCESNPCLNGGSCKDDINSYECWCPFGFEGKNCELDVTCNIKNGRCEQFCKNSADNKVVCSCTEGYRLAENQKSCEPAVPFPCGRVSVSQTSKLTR chain 2: VVGGEDAKPGQFPWQVVLNGKVDAFCGGSIVNEKWIVTAAHCVETGVKITVVAGEHNIEETEHTEQKRNVIRIIPHHNYNAAINKYNHDIALLELDEPLVLNSYVTPICIADKEYTNIFLKFGSGYVSGWGRVFHKGRSALVLQYLRVPLVDRATCLESTKFTIYNNMFCAGFHEGGRDSCQGDSGGPHVTEVEGTSFLTGIISWGEECAMKGKYGIYTKVSEYVNWIKNKTKLT
2. FIXa-D104N/K106S/R318Y/R338E/E410N (protein) chain 1: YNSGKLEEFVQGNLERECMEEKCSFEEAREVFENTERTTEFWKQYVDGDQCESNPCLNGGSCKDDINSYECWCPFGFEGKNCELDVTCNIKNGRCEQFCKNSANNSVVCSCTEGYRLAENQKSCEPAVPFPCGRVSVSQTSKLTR chain 2: VVGGEDAKPGQFPWQVVLNGKVDAFCGGSIVNEKWIVTAAHCVETGVKITVVAGEHNIEETEHTEQKRNVIRIIPHHNYNAAINKYNHDIALLELDEPLVLNSYVTPICIADKEYTNIFLKFGSGYVSGWGRVFHKGYSALVLQYLRVPLVDRATCLESTKFTIYNNMFCAGFHEGGRDSCQGDSGGPHVTEVEGTSFLTGIISWGEECAMKGKYGIYTKVSRYVNWIKNKTKLT

1. 2350
2. 6330

Lab book: K0.5 of FIXa-D203N/F205T/K228N (protein) chain 1: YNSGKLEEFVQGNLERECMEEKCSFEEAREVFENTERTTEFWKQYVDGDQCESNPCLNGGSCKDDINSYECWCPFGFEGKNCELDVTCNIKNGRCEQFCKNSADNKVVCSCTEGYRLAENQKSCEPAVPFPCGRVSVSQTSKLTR chain 2: VVGGEDAKPGQFPWQVVLNGKVNATCGGSIVNEKWIVTAAHCVETGVNITVVAGEHNIEETEHTEQKRNVIRIIPHHNYNAAINKYNHDIALLELDEPLVLNSYVTPICIADKEYTNIFLKFGSGYVSGWGRVFHKGRSALVLQYLRVPLVDRATCLRSTKFTIYNNMFCAGFHEGGRDSCQGDSGGPHVTEVEGTSFLTGIISWGEECAMKGKYGIYTKVSRYVNWIKEKTKLT noted as 822
